System: HepG-2 human hepatocellular carcinoma cells
Test: MTT cytotoxicity on HepG-2
Assay type: cell-based
Conditions: Homo sapiens, HepG2, 48 h, mean ± standard deviation, n = 3, – = Not detected
Procedure: The human leukemia monocyte cell line (THP-1), human lung adenocarcinoma cell line (A549), human breast cancer cells (MDA-MB231), human prostate adenocarcinoma cells (PC3), human malignant glioma cell line (U87MG), human cervical gland carcinoma cells (HeLa), human hepatocellular carcinoma cells (HEP-G2) and normal human lung fibroblast cells (CCD-34-LU) as a healthy cell line in our stock used in this study were purchased from American Type Culture Collection (ATCC). […]
pIC50: −log10 of the molar value.
Exercise: state measured pIC50 for each of the compounds provided.

Task: Using the record for C[C@@H]1O[C@@H](O[C@H]2[C@H](O[C@H]3CC[C@@]4(C)C(CC[C@]5(C)C4CC=C4C6CC(C)(C)CC[C@]6(C(=O)O[C@@H]6O[C@H](CO[C@@H]7O[C@H](CO)[C@@H](O)[C@H](O)[C@H]7O)[C@@H](O)[C@H](O)[C@H]6O)CC[C@]45C)[C@]3(C)CO)OC[C@@H](O)[C@@H]2O)[C@H](O)[C@H](O)[C@H]1O (stereo partly drawn) , state its measured pIC50.
Result: < 4.33

Task: Using the record for C[C@@H]1O[C@@H](O[C@H]2[C@H](O[C@H]3CC[C@@]4(C)C(CC[C@]5(C)C4CC=C4C6CC(C)(C)CC[C@]6(C(=O)O[C@@H]6O[C@H](CO[C@@H]7O[C@H](CO)[C@@H](O)[C@H](O)[C@H]7O)[C@@H](O)[C@H](O)[C@H]6O)CC[C@]45C)C3(C)C)O[C@H](CO)[C@H](O)[C@@H]2O)[C@H](O)[C@H](O)[C@H]1O (stereo partly drawn) , state its measured pIC50.
Result: < 4.34

Task: Using the record for C[C@@H]1O[C@@H](O[C@H]2[C@H](O[C@H]3CC[C@@]4(C)C(CC[C@]5(C)C4CC=C4C6CC(C)(C)CC[C@]6(C(=O)O)CC[C@]45C)[C@]3(C)CO)O[C@H](CO)[C@H](O)[C@@H]2O)[C@H](O)[C@H](O)[C@H]1O (stereo partly drawn) , state its measured pIC50.
Result: < 4.19

----------
test system: THP-1 derived macrophage cells; experiment: Macrophage polarization by flow cytometry (CD11b, CD80, CD163 MFI); assay type: cell-based, human; conditions: saponin 3 µg/mL, 24 h, with inactivated IBV D274 antigen (1 HA); PMA-differentiated THP-1; mean ± SD, n = 3
Exercise: state measured MFI of CD163 (M2 marker) for each of the molecules provided.
In your answer, state the number alone without any accompanying words.

Task: Using the record for C[C@@H]1O[C@@H](O[C@H]2[C@H](O[C@H]3CC[C@@]4(C)C(CC[C@]5(C)C4CC=C4C6CC(C)(C)CC[C@]6(C(=O)O[C@@H]6O[C@H](CO[C@@H]7O[C@H](CO)[C@@H](O)[C@H](O)[C@H]7O)[C@@H](O)[C@H](O)[C@H]6O)CC[C@]45C)C3(C)C)O[C@H](CO)[C@H](O)[C@@H]2O)[C@H](O)[C@H](O)[C@H]1O (stereo partly shown) , state its measured MFI of CD163 (M2 marker).
Result: 7441.00

Task: Using the record for C[C@@H]1O[C@@H](O[C@H]2[C@H](O[C@H]3CC[C@@]4(C)C(CC[C@]5(C)C4CC=C4C6CC(C)(C)CC[C@]6(C(=O)O)CC[C@]45C)C3(C)C)O[C@H](CO)[C@H](O)[C@@H]2O)[C@H](O)[C@H](O)[C@H]1O (stereo partly shown) , state its measured MFI of CD163 (M2 marker).
Result: 7408.64

// data source = paper PMC10560666
